- Assay procedure: Oral bioavailability in Balb/c mouse at 50 mg/kg by LC-MS analysis
- Assay type: ADME, organism-based
- Test parameters: in vivo
Measurement label: bioavailability (%)
Express your answer in %, writing the number without its unit.

Enquiry: Tell me its bioavailability given O=c1c(NCc2ccccn2)c(Nc2ccc3c(c2)OCO3)c1=O as the entry.
Return: 13.1

----------
- Assay procedure: AUC (0 to t) in Balb/c mouse at 50 mg/kg, po by LC-MS analysis
- Assay type: ADME, organism-based
- Parameters: dose 50 mg/kg
- Test parameters: in vivo
Measurement label: AUC(0-t)

Enquiry: Tell me its AUC(0-t) given O=c1c(NCc2ccccn2)c(Nc2ccc3c(c2)OCO3)c1=O as the entry.
Return: 2200 ng·h/mL

----------
- Assay procedure: Elimination half life in Balb/c mouse at 50 mg/kg, po by LC-MS analysis
- Type: ADME, organism-based
- Test parameters: in vivo, read-out: beta t1/2 (converted)
Measurement label: half-life (min)
Express your answer in min, writing the number without its unit.

Enquiry: Tell me its half-life given O=c1c(NCc2ccccn2)c(Nc2ccc3c(c2)OCO3)c1=O as the entry.
Return: 30.6

----------
- Assay procedure: Intrinsic clearance in human hepatocytes at 1 uM measured after 30 mins by LC-MS/MS analysis
- Type: ADME, cell-based, Hepatocyte
- Test parameters: 0.5 h
Exercise: state measured intrinsic clearance for each of the compounds provided.
Express your answer in µL/min, writing the number without its unit.

Enquiry: Tell me its intrinsic clearance given O=C1CCCc2cc(Nc3c(NCc4ccccn4)c(=O)c3=O)ccc21 as the entry.
Return: 16.6

Enquiry: Tell me its intrinsic clearance given O=c1c(NCc2ccccn2)c(Nc2ccc3c(c2)CCC3)c1=O as the entry.
Return: 67.1

Enquiry: Tell me its intrinsic clearance given O=c1c(NCc2ccccn2)c(Nc2ccc(N3CCSCC3)cc2)c1=O as the entry.
Return: 57.2

Enquiry: Tell me its intrinsic clearance given Cc1cc(Nc2c(NCc3ccccn3)c(=O)c2=O)ccc1N1CCSCC1 as the entry.
Return: 77

Enquiry: Tell me its intrinsic clearance given O=c1c(NCc2ccccn2)c(-c2ccc(N3CCOCC3)cc2)c1=O as the entry.
Return: 21.9

----------
- Test system: Mycobacterium tuberculosis H37Rv
- Assay procedure: Inhibition of ATP synthase in Mycobacterium tuberculosis H37Rv assessed as reduction in bacterial growth incubated for 7 days by microplate alamar blue assay
- Test parameters: time 7.0 day
Measurement label: MIC=>90 (µg/mL)
Express your answer in µg/mL, writing the number without its unit.

Enquiry: Tell me its MIC=>90 given Cc1cccc(CNc2c(Nc3ccc(N4CCSCC4)cc3)c(=O)c2=O)n1 as the entry.
Return: 3.65

Enquiry: Tell me its MIC=>90 given O=c1c(NCc2ccccn2)c(Nc2ccc(N3CCCOCC3)cc2)c1=O as the entry.
Return: 6.65

Enquiry: Tell me its MIC=>90 given COc1cccc(Nc2c(NCc3ccccn3)c(=O)c2=O)c1 as the entry.
Return: 6.02

Enquiry: Tell me its MIC=>90 given CN(C)c1ccc(Nc2c(NCc3ccccn3)c(=O)c2=O)cc1 as the entry.
Return: 2

Enquiry: Tell me its MIC=>90 given O=C1COCCN1c1ccc(Nc2c(NCc3ccccn3)c(=O)c2=O)cc1 as the entry.
Return: 7.75

Enquiry: Tell me its MIC=>90 given N#Cc1cc(Nc2c(NCc3ccccn3)c(=O)c2=O)ccc1N1CCSCC1 as the entry.
Return: 1.23

Enquiry: Tell me its MIC=>90 given O=c1c(NCc2ccccn2)c(Nc2ccc(N3CCSCC3)cc2)c1=O as the entry.
Return: 1.54

Enquiry: Tell me its MIC=>90 given O=c1c(NCc2ccccn2)c(Nc2ccc(N3CC[S+]([O-])CC3)cc2)c1=O as the entry.
Return: 15.8

Enquiry: Tell me its MIC=>90 given O=c1c(NCc2ccccn2)c(Nc2ccc3c(c2)OCCCO3)c1=O as the entry.
Return: 2.22

Enquiry: Tell me its MIC=>90 given O=C1CCc2cc(Nc3c(NCc4ccccn4)c(=O)c3=O)ccc21 as the entry.
Return: 3.46

Enquiry: Tell me its MIC=>90 given O=c1c(NCc2ccccn2)c(Nc2ccc(N3CCSCC3)c(C(F)(F)F)c2)c1=O as the entry.
Return: 9.4

Enquiry: Tell me its MIC=>90 given O=c1c(NCc2ccccn2)c(Nc2ccc(N3CCCCC3)cc2)c1=O as the entry.
Return: 3.76

Enquiry: Tell me its MIC=>90 given O=c1c(NCc2ccccn2)c(Nc2ccc3ncsc3c2)c1=O as the entry.
Return: 1.91

Enquiry: Tell me its MIC=>90 given Cc1cc(Nc2c(NCc3ccccn3)c(=O)c2=O)ccc1N1CCOCC1 as the entry.
Return: 2.45

Enquiry: Tell me its MIC=>90 given Cc1cc(Nc2c(NCc3ccccn3)c(=O)c2=O)ccc1N1CCSCC1 as the entry.
Return: 0.496

Enquiry: Tell me its MIC=>90 given O=c1c(NCc2ccccn2)c(Nc2ccc3c(c2)OCCO3)c1=O as the entry.
Return: 1.89

Enquiry: Tell me its MIC=>90 given O=C1CCCc2cc(Nc3c(NCc4ccccn4)c(=O)c3=O)ccc21 as the entry.
Return: 0.739

Enquiry: Tell me its MIC=>90 given O=c1c(NCc2ccccn2)c(Nc2ccc(Cl)cc2)c1=O as the entry.
Return: 7.7

Enquiry: Tell me its MIC=>90 given O=c1c(NCc2ccccn2)c(-c2ccc(N3CCOCC3)cc2)c1=O as the entry.
Return: 0.12

Enquiry: Tell me its MIC=>90 given O=c1c(NCc2ccccn2)c(Nc2ccc(N3CCOCC3)cc2)c1=O as the entry.
Return: 3.75

Enquiry: Tell me its MIC=>90 given O=c1c(NCc2ccccn2)c(Nc2ccc3c(c2)CCC3)c1=O as the entry.
Return: 0.979

Enquiry: Tell me its MIC=>90 given O=C1CCc2ccc(Nc3c(NCc4ccccn4)c(=O)c3=O)cc21 as the entry.
Return: 1.83

Enquiry: Tell me its MIC=>90 given COc1ccc(Nc2c(NCc3ccccn3)c(=O)c2=O)cc1 as the entry.
Return: 3.42

Enquiry: Tell me its MIC=>90 given NNC(=O)c1ccncc1 as the entry.
Return: 0.019

Enquiry: Tell me its MIC=>90 given O=c1c(NCc2ccccn2)c(Nc2ccc3c(c2)OCO3)c1=O as the entry.
Return: 0.452

----------
- Assay procedure: Half life in CD-1 mouse hepatocytes at 1 uM measured after 30 mins by LC-MS/MS analysis
- Type: ADME, cell-based, Hepatocyte
Measurement label: half-life at 1 µM (min)
Express your answer in min, writing the number without its unit.

Enquiry: Tell me its half-life at 1 µM given O=C1CCCc2cc(Nc3c(NCc4ccccn4)c(=O)c3=O)ccc21 as the entry.
Return: 10.3

Enquiry: Tell me its half-life at 1 µM given O=c1c(NCc2ccccn2)c(Nc2ccc(N3CCSCC3)cc2)c1=O as the entry.
Return: 12.6

Enquiry: Tell me its half-life at 1 µM given O=c1c(NCc2ccccn2)c(Nc2ccc3c(c2)OCO3)c1=O as the entry.
Return: 17

Enquiry: Tell me its half-life at 1 µM given O=c1c(NCc2ccccn2)c(Nc2ccc3c(c2)CCC3)c1=O as the entry.
Return: 11.1

Enquiry: Tell me its half-life at 1 µM given Cc1cc(Nc2c(NCc3ccccn3)c(=O)c2=O)ccc1N1CCSCC1 as the entry.
Return: 5.4

Enquiry: Tell me its half-life at 1 µM given O=c1c(NCc2ccccn2)c(-c2ccc(N3CCOCC3)cc2)c1=O as the entry.
Return: 17.1

----------
- Assay procedure: Clearance in Balb/c mouse at 5 mg/kg, iv by LC-MS analysis
- Type: ADME, organism-based
- Test parameters: in vivo
Measurement label: clearance
# answer = value followed by unit

Enquiry: Tell me its clearance given O=c1c(NCc2ccccn2)c(Nc2ccc3c(c2)OCO3)c1=O as the entry.
Return: 51.4 mL/min/kg

----------
Exercise: state measured intrinsic clearance for each of the molecules provided.
- Assay procedure: Intrinsic clearance in CD-1 mouse hepatocytes at 1 uM measured after 30 mins by LC-MS/MS analysis
- Format: ADME, cell-based, Hepatocyte
- Test parameters: 0.5 h
Express your answer in µL/min, writing the number without its unit.

Enquiry: Tell me its intrinsic clearance given Cc1cc(Nc2c(NCc3ccccn3)c(=O)c2=O)ccc1N1CCSCC1 as the entry.
Return: 127.8

Enquiry: Tell me its intrinsic clearance given O=C1CCCc2cc(Nc3c(NCc4ccccn4)c(=O)c3=O)ccc21 as the entry.
Return: 67.2

Enquiry: Tell me its intrinsic clearance given O=c1c(NCc2ccccn2)c(Nc2ccc(N3CCSCC3)cc2)c1=O as the entry.
Return: 55.1

Enquiry: Tell me its intrinsic clearance given O=c1c(NCc2ccccn2)c(Nc2ccc3c(c2)CCC3)c1=O as the entry.
Return: 62.4

Enquiry: Tell me its intrinsic clearance given O=c1c(NCc2ccccn2)c(-c2ccc(N3CCOCC3)cc2)c1=O as the entry.
Return: 40.6

Enquiry: Tell me its intrinsic clearance given O=c1c(NCc2ccccn2)c(Nc2ccc3c(c2)OCO3)c1=O as the entry.
Return: 40.8

Numbers sourced from ChEMBL document CHEMBL4765447.
